Known Inhibition of PDE Sub-Types (%) 2A3 of a selection of molecules
- TARGET_UNDER_TEST: UniProt:O00408
- Sequence (O00408 whole entry): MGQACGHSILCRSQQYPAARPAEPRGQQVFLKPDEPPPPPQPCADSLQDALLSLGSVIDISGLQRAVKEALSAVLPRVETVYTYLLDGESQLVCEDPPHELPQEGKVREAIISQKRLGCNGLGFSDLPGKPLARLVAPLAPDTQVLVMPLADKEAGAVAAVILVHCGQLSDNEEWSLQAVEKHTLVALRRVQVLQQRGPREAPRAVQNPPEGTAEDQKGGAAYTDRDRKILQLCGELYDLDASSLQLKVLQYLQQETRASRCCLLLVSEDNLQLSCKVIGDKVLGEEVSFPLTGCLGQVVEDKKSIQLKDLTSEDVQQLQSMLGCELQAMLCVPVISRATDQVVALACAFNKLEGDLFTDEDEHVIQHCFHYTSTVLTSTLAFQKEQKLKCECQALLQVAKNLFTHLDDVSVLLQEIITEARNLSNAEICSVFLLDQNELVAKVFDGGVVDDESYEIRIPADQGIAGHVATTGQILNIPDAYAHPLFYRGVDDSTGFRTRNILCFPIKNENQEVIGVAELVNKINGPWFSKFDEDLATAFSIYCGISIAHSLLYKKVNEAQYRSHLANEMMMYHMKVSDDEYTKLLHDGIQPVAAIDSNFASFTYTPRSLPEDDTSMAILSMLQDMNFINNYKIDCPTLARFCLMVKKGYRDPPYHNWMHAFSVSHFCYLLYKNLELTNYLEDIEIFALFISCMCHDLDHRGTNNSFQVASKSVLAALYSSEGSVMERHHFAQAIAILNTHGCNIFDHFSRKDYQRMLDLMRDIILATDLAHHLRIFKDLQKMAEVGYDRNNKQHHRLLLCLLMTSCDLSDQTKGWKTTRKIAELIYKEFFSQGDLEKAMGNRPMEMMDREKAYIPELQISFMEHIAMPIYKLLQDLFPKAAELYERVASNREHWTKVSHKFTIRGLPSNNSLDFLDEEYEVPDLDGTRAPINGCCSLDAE
- ASSAY_TEXT: PDE2A3 radiometric enzyme inhibition assay
- MEASUREMENT_SETUP: compound at 10 nM
Give the quantity in %, number only.

{"CHEMICAL_SMILES": "COc1ccc(Cl)c(-c2nc(C)c3nnc4ccc(-c5ccc(F)nc5)cc4n23)c1", "TARGET_UNDER_TEST": "UniProt:O00408", "UNIT_TAG": "%", "Inhibition of PDE Sub-Types (%) 2A3": 2.63}
{"CHEMICAL_SMILES": "Cc1nc(-c2cc(OCC3(C)COC3)ccc2Cl)n2c1nnc1ccc(-c3ccc(F)nc3)cc12", "TARGET_UNDER_TEST": "UniProt:O00408", "UNIT_TAG": "%", "Inhibition of PDE Sub-Types (%) 2A3": 8.52}
{"CHEMICAL_SMILES": "Cc1nc(-c2cc(OCC3(C)COC3)ccc2Cl)n2c1nnc1ccc(-c3ccnc(F)c3)cc12", "TARGET_UNDER_TEST": "UniProt:O00408", "UNIT_TAG": "%", "Inhibition of PDE Sub-Types (%) 2A3": 13.2}

Now consider a different molecule.
Query: Which Inhibition of PDE Sub-Types (%) 2A3 is listed for COc1ccc(F)c(-c2nc(C)c3nnc4ccc(-c5ccncc5)cc4n23)c1 ?
Result: 80.5

----------
- TARGET_UNDER_TEST: PDE4A1 (Homo sapiens)
- Construct: purchased SB Drug Discovery (Scotland, U.K.); host or cells: baculoviral system
- Sequence (P27815 1-647 isoform P27815-4): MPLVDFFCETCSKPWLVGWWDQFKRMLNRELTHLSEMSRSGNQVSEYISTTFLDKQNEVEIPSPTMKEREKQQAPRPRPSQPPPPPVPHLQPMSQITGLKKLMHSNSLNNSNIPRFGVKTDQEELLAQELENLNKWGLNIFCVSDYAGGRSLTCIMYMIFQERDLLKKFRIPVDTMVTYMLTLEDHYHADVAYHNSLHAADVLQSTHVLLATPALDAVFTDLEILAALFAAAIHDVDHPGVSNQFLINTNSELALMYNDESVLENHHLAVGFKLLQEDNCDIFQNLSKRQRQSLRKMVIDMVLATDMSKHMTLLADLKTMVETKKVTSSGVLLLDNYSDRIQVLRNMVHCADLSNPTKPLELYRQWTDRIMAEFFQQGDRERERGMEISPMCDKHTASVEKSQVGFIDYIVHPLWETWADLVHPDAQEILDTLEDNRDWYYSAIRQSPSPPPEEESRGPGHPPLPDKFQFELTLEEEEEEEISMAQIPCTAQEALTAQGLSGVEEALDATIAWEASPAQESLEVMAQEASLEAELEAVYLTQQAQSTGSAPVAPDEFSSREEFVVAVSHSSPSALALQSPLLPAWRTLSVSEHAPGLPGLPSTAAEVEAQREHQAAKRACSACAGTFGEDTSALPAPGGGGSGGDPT
- ASSAY_TEXT: PDE4A1 radiometric enzyme inhibition assay
- Assay type: biochemical
- MEASUREMENT_SETUP: compound at 1 µM; read-out: Inhibition of PDE Sub-Types (%) 4A1
Known inhibition at 1 µM of a selection of molecules
Give the quantity in %, number only.

{"MOLECULE": "COc1ccc(Cl)c(-c2nc(C)c3nnc4ccc(-c5cncc(F)c5)cc4n23)c1", "inhibition at 1 µM [%]": 65.7}
{"MOLECULE": "CCCCOc1ccc(F)c(-c2nc(C)c3nnc4ccc(OC)nc4n23)c1 [TA1, reference compound]", "inhibition at 1 µM [%]": 24.9}

Query: Which inhibition at 1 µM is listed for COc1ccc(Cl)c(-c2nc(C)c3nnc4ccc(-c5ccnc(F)c5)cc4n23)c1 ?
Result: 58.6
